# reported Fusogenicity Rank; entries follow
Tested on: Mfn2 null MEFs
assayMethodText: Mitochondrial elongation (aspect ratio) fusogenicity assay
Format: cell-based, mouse
testContext: rank order of aspect ratio among 44 soluble library compounds
Give a plain numeric answer without units written out.

The following compounds have reported results that may help.
>>> df
                                   compound  measuredvalue
0  Cc1ccc(N2C[C@@H]3CC[C@H](C2)N(Cc2ccccn2)C3=O)nn1 [drawing 245]             36
1  COc1ccc2c(c1)C1(SCCN1C(=O)c1ccccc1C)C(=O)N2Cc1cccc(C(F)(F)F)c1 (stereo not drawn) [drawing 210]             26
2  CC(c1cccc([N+](=O)[O-])c1)N(C)CC(=O)NCCSCc1ccccc1C#N (stereo not drawn)             16
3  Cc1ccc(-n2c(SC(C)C(=O)Nc3ccnn3C(C)C)nnc2N2CCOCC2)cc1 (stereo not drawn) [drawing 229]             15
4  O=C(Nc1cc(CSCCOC(=O)C2C3CCCCC32)ccn1)C1C2CCCCC21 (stereo not drawn)             10

Next:
Lookup result for CCCc1noc(C(C)Sc2nc3cc(C)ccc3[nH]2)n1 (stereo not drawn) [drawing 231] ; measured Fusogenicity Rank: 17

Origin of measurements: patent US10844023B2
